Tested on: Escherichia coli
Experiment: Antimicrobial activity against Escherichia coli assessed as microbial growth inhibition incubated for 16 hrs under aerobic condition by microplate reader assay
Format: functional
ASSAY_METRIC: MIC (µM)

INSERT INTO assay_data (molecule_smiles, modifier_sign, numeric_readout) VALUES
  ('COc1cc2cc[n+](C)c(Cc3ccc(Oc4cc(Cc5c6cc(OC)c(OC)cc6cc[n+]5C)ccc4OC)cc3)c2cc1OC', '=', 39.6),
  ('COc1cc2c(cc1OC)[C@@H](Cc1ccc(Oc3cc(Cc4c5cc(OC)c(OC)cc5cc[n+]4C)ccc3OC)cc1)N(C)CC2', '=', 158),
  ('COc1cc2cc[n+](C)c(Cc3ccc(OC)c(Oc4ccc(C=O)cc4)c3)c2cc1OC', '>', 100),
  ('COc1cc2cc[n+](C)c(O)c2cc1OC', '>', 100),
  ('COc1cc2cc[n+](C)c(Cc3ccc(Oc4cc(Cc5c6cc(OC)c(OC)cc6cc[n+]5C)ccc4O)cc3)c2cc1OC', '>', 100);
